Recorded measurements of EC50 in AML5 proliferation assay, one per entry
Molecular target: T1, human FLT3 (FMS-like tyrosine kinase 3) (human, UniProt P36888 27-993)
T1 sequence (looked up): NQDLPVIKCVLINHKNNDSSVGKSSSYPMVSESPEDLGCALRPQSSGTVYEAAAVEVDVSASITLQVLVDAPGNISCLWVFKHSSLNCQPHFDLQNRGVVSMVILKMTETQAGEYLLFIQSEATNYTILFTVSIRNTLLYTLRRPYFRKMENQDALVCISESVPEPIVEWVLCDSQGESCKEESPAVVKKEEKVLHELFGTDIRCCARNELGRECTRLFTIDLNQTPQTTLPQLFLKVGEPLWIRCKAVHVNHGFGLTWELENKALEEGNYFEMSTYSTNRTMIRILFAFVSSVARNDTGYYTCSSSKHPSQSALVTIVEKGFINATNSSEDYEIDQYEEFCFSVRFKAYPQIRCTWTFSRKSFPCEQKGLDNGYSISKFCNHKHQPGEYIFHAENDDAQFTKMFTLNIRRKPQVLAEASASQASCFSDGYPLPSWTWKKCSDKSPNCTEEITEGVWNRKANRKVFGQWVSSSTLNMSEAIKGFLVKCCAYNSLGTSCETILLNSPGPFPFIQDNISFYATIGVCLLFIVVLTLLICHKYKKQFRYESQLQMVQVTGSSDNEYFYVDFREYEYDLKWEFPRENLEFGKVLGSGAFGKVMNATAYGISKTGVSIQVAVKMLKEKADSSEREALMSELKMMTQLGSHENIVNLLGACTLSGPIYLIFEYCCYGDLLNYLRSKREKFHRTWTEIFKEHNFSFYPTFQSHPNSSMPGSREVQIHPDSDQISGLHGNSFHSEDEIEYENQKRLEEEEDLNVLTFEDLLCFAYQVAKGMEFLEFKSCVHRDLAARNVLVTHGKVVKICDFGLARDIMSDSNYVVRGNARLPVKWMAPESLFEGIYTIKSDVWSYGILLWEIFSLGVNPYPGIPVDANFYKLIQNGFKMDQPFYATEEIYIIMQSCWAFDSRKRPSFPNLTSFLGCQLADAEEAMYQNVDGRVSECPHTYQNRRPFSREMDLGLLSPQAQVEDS
Assay: cell-based or functional assay
Quick reminder: number only, in nM, skip the unit.

Below, 2 binders whose answers are already recorded.
{"binder": "Humanized VH4 x Humanized VL3 (antibody, V domains shown) VH: QVQLVESGGGVVQPGRSLRLSCAASGFTFSNYGMAWVRQAPGKGLEWVASIHSGGGDTYYRDSVKGRFTISRDNSKNTLYLQMNSLRAEDTATYYCARGRTPTGYYFDHWGQGTMVTVSS VL: AIQLTQSPSSLSASVGDRVTITCRASEGIHNGLAWYQQKPGKAPKLLIYNANSLHSRVPSRFSGSGSGTDFTLTISSLQPEDFATYFCQQYYDYPLTFGQGTKLEIK", "displayUnit": "nM", "EC50 in AML5 proliferation assay": 0.091}
{"binder": "Humanized VH1 x Humanized VL5 (antibody, V domains shown) VH: EVQLLESGGGLVQPGGSLRLSCAPSGFTFSNYGMAWVRQAPGKGLEWVSSIHSGGGDTYYRDSVKGRFTISRDNSKNTLYLQMNSLRAEDTAVYYCARGRTPTGYYFDHWGQGTMVTVSS VL: EIVMTQSPATLSVSPGERATLSCRASEGIHNGLAWYQQKPGQAPRLLIYNANSLHSGIPARFSGSGSGTEFTLTISSLQSEDFAVYFCQQYYDYPLTFGQGTKLEIK", "displayUnit": "nM", "EC50 in AML5 proliferation assay": 0.097}

From here, focus on the item given below.
Input Humanized VH2 x Humanized VL3 (antibody, V domains shown) VH: EVQLVESGGGLVQPGGSLRLSCAASGFTFSNYGMAWVRQAPGKGLEWVASIHSGGGDTYYRDSVKGRFTISRDNAKNSLYLQMNSLRAEDTAVYYCARGRTPTGYYFDHWGQGTMVTVSS VL: AIQLTQSPSSLSASVGDRVTITCRASEGIHNGLAWYQQKPGKAPKLLIYNANSLHSRVPSRFSGSGSGTDFTLTISSLQPEDFATYFCQQYYDYPLTFGQGTKLEIK , output reported EC50 in AML5 proliferation assay.
0.091
